Data origin: the supplement of paper PMC7877785

# protocol notes: self-splicing fitness, log relative to wild type (ln ratio); higher = more splicing; Tetrahymena group I intron in knt gene, E. coli kanamycin selection, DiMSum; sequences stand for … in CUCUCU…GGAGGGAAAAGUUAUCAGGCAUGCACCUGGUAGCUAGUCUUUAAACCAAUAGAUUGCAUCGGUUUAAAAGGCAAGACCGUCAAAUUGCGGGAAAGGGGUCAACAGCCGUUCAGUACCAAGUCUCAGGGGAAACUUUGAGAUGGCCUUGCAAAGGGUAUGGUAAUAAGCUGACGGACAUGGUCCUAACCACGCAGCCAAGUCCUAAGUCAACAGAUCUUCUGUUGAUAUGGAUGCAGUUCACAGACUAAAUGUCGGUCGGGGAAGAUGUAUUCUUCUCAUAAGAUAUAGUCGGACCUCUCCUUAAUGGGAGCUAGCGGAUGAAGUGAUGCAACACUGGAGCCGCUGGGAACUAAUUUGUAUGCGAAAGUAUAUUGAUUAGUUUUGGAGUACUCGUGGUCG;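 further: selection with 25 µg/mL kanamycin versus none on LB agar overnight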
# particulars: 30 °C
// classify(record): look up self-splicing fitness (ln) in ranges class 1 = under -3, class 2 = from -3 up to -2, class 3 = -2 and over

Completed entries (count: 8):
input sequence: AGAUAGCAAUAUUACGCACC
category label: class 3
--
input sequence: AACUAGCAAUAUUACGACUU
category label: class 3
--
input sequence: GGAAAGCAAUAUUACGACAA
category label: class 3
--
input sequence: GCGUAGCAAUAUUACGAGUU
category label: class 2
--
input sequence: UGUAAGCAAUAUUACGGGAU
category label: class 1
--
input sequence: AUAAAGCAAUAUUACGAUAC
category label: class 3
--
input sequence: CAAAAGCAAUAUUACGAGUC
category label: class 1
--
input sequence: UCUUAGCAAUAUUACGUGUA
category label: class 3

In plain terms, what class is GGCAAGCAAUAUUACGUCAU ?
class 3

Another sequence: UACCAGCAAUAUUACGGAGU
class 1

Another sequence: CGGCAGCAAUAUUACGCAAG
class 3

Another sequence: UUAGAGCAAUAUUACGAACA
class 2

Another sequence: CUCUAGCAAUAUUACGAUGU
class 1

Another sequence: CUCUAGCAAUAUUACGGUUC
class 2

Another sequence: GAGGAGCAAUAUUACGUACU
class 2

----------
# protocol notes: self-splicing fitness, log relative to wild type (ln ratio); higher = more splicing; Tetrahymena group I intron in knt gene, E. coli kanamycin selection, DiMSum; sequences stand for … in CUCUCU…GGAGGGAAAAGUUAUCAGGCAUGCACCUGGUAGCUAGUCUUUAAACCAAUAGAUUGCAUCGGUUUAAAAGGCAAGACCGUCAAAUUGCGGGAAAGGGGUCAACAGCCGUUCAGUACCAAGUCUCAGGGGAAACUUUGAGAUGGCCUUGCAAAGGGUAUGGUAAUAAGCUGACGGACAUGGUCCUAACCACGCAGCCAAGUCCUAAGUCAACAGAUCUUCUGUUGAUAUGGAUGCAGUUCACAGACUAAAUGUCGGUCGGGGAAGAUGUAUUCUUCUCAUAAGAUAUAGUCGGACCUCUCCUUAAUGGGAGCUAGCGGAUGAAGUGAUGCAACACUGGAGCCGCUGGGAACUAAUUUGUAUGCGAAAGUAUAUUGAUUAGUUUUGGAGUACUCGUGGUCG
# particulars: 37 °C
readout type: self-splicing fitness (ln)
Just the number, please, no unit attached.

Look over these answered cases.
input sequence: CUUUAGCAAUAUUACGCCCA
self-splicing fitness (ln): -1.54
//
input sequence: GCCUAGCAAUAUUACGAACA
self-splicing fitness (ln): -1.03
//
input sequence: GAAAAGCAAUAUUACGUGCC
self-splicing fitness (ln): -0.25
//
input sequence: GGAUAGCAAUAUUACGCUGU
self-splicing fitness (ln): -2.68
//
input sequence: CGAAAGCAAUAUUACGACAC
self-splicing fitness (ln): -1.56

Request the reported self-splicing fitness (ln) associated with UUGAAGCAAUAUUACGUAAG
0.223

Another sequence: UAGAAGCAAUAUUACGCCGG
-0.196

Another sequence: UUCCAGCAAUAUUACGCACA
-0.0969

Another sequence: CCAAAGCAAUAUUACGAUCG
-0.183

Another sequence: AUAAAGCAAUAUUACGGGCC
-0.0428

Another sequence: GUAUAGCAAUAUUACGCAAG
-1.64

Another sequence: UCACAGCAAUAUUACGUUUA
-0.819

----------
# protocol notes: self-splicing fitness, log relative to wild type (ln ratio); higher = more splicing; Tetrahymena group I intron in knt gene, E. coli kanamycin selection, DiMSum; sequences stand for … in CUCUCU…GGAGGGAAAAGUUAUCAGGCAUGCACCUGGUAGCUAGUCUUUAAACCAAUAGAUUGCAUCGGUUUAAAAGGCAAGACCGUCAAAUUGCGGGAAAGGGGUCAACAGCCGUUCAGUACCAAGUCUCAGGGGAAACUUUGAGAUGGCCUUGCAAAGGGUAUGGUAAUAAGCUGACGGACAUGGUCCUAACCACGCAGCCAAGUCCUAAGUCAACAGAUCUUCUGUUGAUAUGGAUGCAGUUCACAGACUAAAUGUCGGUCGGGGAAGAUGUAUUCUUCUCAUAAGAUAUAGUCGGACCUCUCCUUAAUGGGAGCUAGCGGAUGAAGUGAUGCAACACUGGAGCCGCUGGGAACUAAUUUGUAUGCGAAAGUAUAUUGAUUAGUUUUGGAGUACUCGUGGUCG
# particulars: 37 °C
readout type: self-splicing fitness (ln)

Look over these answered cases.
input sequence: GUUCAGCAAUAUUACGCUCG
readout type: self-splicing fitness (ln)
recorded value: 0.0872
//
input sequence: UAGAAGCAAUAUUACGGGUC
readout type: self-splicing fitness (ln)
recorded value: -2.84
//
input sequence: CCCGAGCAAUAUUACGCUAU
readout type: self-splicing fitness (ln)
recorded value: -2.49
//
input sequence: CCUCAGCAAUAUUACGUAAC
readout type: self-splicing fitness (ln)
recorded value: -2.13

Request the reported self-splicing fitness (ln) associated with AAAAAGCAAUAUUACGAUCA
-0.0134

Another sequence: AUAGAGCAAUAUUACGUAGG
-2.65

Another sequence: AUACAGCAAUAUUACGAUGA
-0.0115

Another sequence: UCAGAGCAAUAUUACGUUCU
-2.47

Another sequence: GUUGAGCAAUAUUACGACAC
-0.362

----------
# protocol notes: self-splicing fitness, log relative to wild type (ln ratio); higher = more splicing; Tetrahymena group I intron in knt gene, E. coli kanamycin selection, DiMSum; sequences stand for … in CUCUCU…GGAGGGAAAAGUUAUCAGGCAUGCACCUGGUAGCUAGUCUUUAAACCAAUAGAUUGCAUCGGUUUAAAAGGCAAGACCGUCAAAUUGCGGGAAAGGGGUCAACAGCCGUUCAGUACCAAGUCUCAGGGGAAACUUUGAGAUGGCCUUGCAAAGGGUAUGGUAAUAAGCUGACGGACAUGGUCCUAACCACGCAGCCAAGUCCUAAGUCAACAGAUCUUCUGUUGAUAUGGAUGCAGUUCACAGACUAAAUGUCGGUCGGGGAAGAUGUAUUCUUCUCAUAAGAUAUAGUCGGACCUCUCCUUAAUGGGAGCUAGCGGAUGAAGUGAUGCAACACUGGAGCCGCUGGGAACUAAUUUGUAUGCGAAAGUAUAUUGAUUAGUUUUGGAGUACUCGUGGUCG
# particulars: 30 °C
readout type: self-splicing fitness (ln)
Just the number, please, no unit attached.

Look over these answered cases.
input sequence: CUAGAGCAAUAUUACGUUCG
recorded value: -1.1
//
input sequence: CGGGAGCAAUAUUACGCCCA
recorded value: -2.28

Request the reported self-splicing fitness (ln) associated with GAAGAGCAAUAUUACGCAAG
-3.6

Another sequence: UCCCAGCAAUAUUACGCCGA
-0.426

Another sequence: UACUAGCAAUAUUACGAUAG
-1.44

Another sequence: ACGAAGCAAUAUUACGUUAG
-3.22

Another sequence: GUAUAGCAAUAUUACGAUUA
-1.14

Another sequence: ACUUAGCAAUAUUACGACGG
-0.755

Another sequence: UCGUAGCAAUAUUACGUCUU
-2.7

Another sequence: CCAAAGCAAUAUUACGAUGC
-3.78

Another sequence: CACCAGCAAUAUUACGCAUG
-1.29

Another sequence: GUGCAGCAAUAUUACGCCAA
-1.41

Another sequence: ACAUAGCAAUAUUACGUCGC
-4.47

Another sequence: AGGAAGCAAUAUUACGAUUU
-0.378

Another sequence: ACAUAGCAAUAUUACGUUUA
-2.82

Another sequence: CUCCAGCAAUAUUACGUUCG
-3.41

Another sequence: CAAGAGCAAUAUUACGGAUA
-2.87

Another sequence: AAUCAGCAAUAUUACGGAGU
-0.488

Another sequence: CAACAGCAAUAUUACGACCC
-1.31

Another sequence: CCUCAGCAAUAUUACGUGGC
-3.94

Another sequence: GGGAAGCAAUAUUACGGUAC
-1.47
